System: HCV replicon in Huh7 cells
Assay: microbe, parasite or virus in culture
Assay type: cell-based, strain 1b
Details: Hepatitis C virus, Huh-7, 96 h; Huh7 cells expressing HCV replicon, 4 days; activity range class
Description: Generation of HCV Replicon This system enabled us to evaluate the effects of our HCV Protease compounds on HCV RNA replication. […] Huh7 cells, constitutively expressing the HCV replicon, were grown in Dulbecco's Modified Eagle Media (DMEM) containing 10% Fetal calf serum (FCS) and 1 mg/ml G418 (Gibco-BRL). […] The plate was then placed into the Cytofluor 4000 instrument which had been set to 340 nm excitation/490 nm emission, automatic mode for 21 cycles and the plate read in a kinetic mode. […]
pEC50: −log10 of the molar value.
readout type: pEC50

| compound | system tested | result |
| --- | --- | --- |
| C=C[C@@H]1C[C@]1(NC(=O)C1C[C@@H](Oc2nc(-c3ccccc3)nc3ccccc23)CN1C(=O)[C@@H](NC(=O)OC(C)(C)C)C(C)(C)C)C(=O)NS(=O)(=O)C1(CC2CC2)CC1 (some centres unmarked) [Cmpd 600] | HCV replicon in Huh7 cells | > 7.00 |
| C=C[C@@H]1C[C@]1(NC(=O)[C@@H]1C[C@@H](Oc2nccc3cc(OC)ccc23)CN1C(=O)[C@@H](NC(=O)NC(C)(C)C)C(C)(C)C)C(=O)NS(=O)(=O)C1(C)CC1 [Cmpd 217] | HCV replicon in Huh7 cells | > 7.00 |
| C=C[C@@H]1C[C@]1(NC(=O)[C@@H]1C[C@@H](Oc2nccc3ccccc23)CN1C(=O)[C@@H](NC(=O)OC(C)(C)C)C(C)(C)C)C(=O)NS(=O)(=O)C1(CC2CC2)CC1 [Cmpd 400] | HCV replicon in Huh7 cells | 6.00 to 7.00 |
| C=C[C@@H]1C[C@]1(NC(=O)[C@@H]1C[C@@H](Oc2nccc3c(Cl)cccc23)CN1C(=O)[C@@H](NC(=O)OC(C)(C)C)C(C)(C)C)C(=O)NS(=O)(=O)C1(CC)CC1 [Cpd 101] | HCV replicon in Huh7 cells | > 7.00 |
| C=C[C@@H]1C[C@]1(NC(=O)[C@@H]1C[C@@H](Oc2nccc3c(OC(F)(F)F)cccc23)CN1C(=O)[C@@H](NC(=O)OC(C)(C)C)C(C)(C)C)C(=O)NS(=O)(=O)C1(CC)CC1 [Cpd 103] | HCV replicon in Huh7 cells | 6.00 to 7.00 |

---

The following compounds are listed with their measured pEC50 values.
system: HCV replicon in Huh7 cells; test: microbe, parasite or virus in culture; type: cell-based, strain 1b; settings: Hepatitis C virus, Huh-7, 96 h; Huh7 cells expressing HCV replicon, 4 days; activity range class
pEC50: −log10 of the molar value.
readout type: pEC50

| compound | result |
| --- | --- |
| C=C[C@@H]1C[C@]1(NC(=O)[C@@H]1C[C@@H](Oc2nccc3c(OC)cccc23)CN1C(=O)[C@@H](NC(=O)OC(C)(C)C)C(C)(C)C)C(=O)NS(=O)(=O)C1(CC)CC1 | > 7.00 |
| C=C[C@@H]1C[C@]1(NC(=O)[C@@H]1C[C@@H](Oc2nccc3cc(OC)ccc23)CN1C(=O)[C@@H](NC(=O)N1CCC1)C(C)(C)C)C(=O)NS(=O)(=O)C1(C)CC1 | 6.00 to 7.00 |
| C=C[C@@H]1C[C@]1(NC(=O)[C@@H]1C[C@@H](Oc2nccc3c(C(F)(F)F)cccc23)CN1C(=O)[C@@H](NC(=O)OC(C)(C)C)C(C)(C)C)C(=O)NS(=O)(=O)C1(CC)CC1 | 6.00 to 7.00 |
